Hey, just so you know, these numbers are from BigSolDB 2.1.

measurement.context: in 1,4-dioxane, 293.15 K
quantity.measured: solubility (mole fraction)
In your answer, state the number alone without any accompanying words.

QUERY: Look up solubility (mole fraction): CC(=O)Nc1ccccc1[N+](=O)[O-]
RESULT: 0.147

---

measurement.context: in isopropanol, 293.15 K
quantity.measured: solubility (mole fraction)
In your answer, state the number alone without any accompanying words.

QUERY: Look up solubility (mole fraction): CC(=O)Nc1ccccc1[N+](=O)[O-]
RESULT: 0.0121

---

measurement.context: in isobutanol, 283.15 K
quantity.measured: solubility (mole fraction)
In your answer, state the number alone without any accompanying words.

QUERY: Look up solubility (mole fraction): CC(=O)Nc1ccccc1[N+](=O)[O-]
RESULT: 0.00984
